Biological target: Melanocortin receptor 4 (Homo sapiens, UniProt P32245); note: in other assays of this panel Not Active means under 50% inhibition at 10 µM
Sequence (P32245 whole entry): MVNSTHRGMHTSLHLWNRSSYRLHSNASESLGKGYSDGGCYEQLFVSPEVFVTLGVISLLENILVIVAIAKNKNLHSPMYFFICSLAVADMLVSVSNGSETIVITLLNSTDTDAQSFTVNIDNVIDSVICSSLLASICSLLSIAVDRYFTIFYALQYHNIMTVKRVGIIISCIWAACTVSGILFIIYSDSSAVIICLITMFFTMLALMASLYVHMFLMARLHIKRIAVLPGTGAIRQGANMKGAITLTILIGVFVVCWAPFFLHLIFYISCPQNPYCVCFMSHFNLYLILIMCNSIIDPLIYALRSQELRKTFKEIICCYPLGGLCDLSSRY
Assay type: cell membranes, HEK293, Membrane
Conditions: hek293; read-out: Ki
observed property: pKi
Scale for pKi: -log10 of concentration given in mol/L; no unit attached.

Entry under review: `GRAMICIDIN` . Reported pKi? 5.50

---

Molecular target: Melanocortin receptor 4 (Homo sapiens, UniProt P32245); note: in other assays of this panel Not Active means under 50% inhibition at 10 µM
Type: cell membranes, HEK293, Membrane
Details: hek293
observed property: IC50

CC(C)Oc1ccc2c(=O)c(-c3ccccc3)coc2c1 = Not Active
COc1ccc2[nH]cc(CCNC(C)=O)c2c1 = Not Active
CC[C@@H](C(=O)[C@@H](C)[C@@H](O)[C@H](C)[C@@H]1O[C@@H]([C@@H](CC)C(=O)O)CC[C@@H]1C)[C@H]1O[C@]2(C=C[C@@H](O)[C@]3(CC[C@@](C)([C@H]4CC[C@](O)(CC)[C@H](C)O4)O3)O2)[C@H](C)C[C@@H]1C = Not Active

The values you see were collected from ChEMBL document CHEMBL1909046.
